I'd be grateful if you could share measured EC80 for these entries.
target: UniProtKB P04150; assay: GRE-SEAP reporter gene assay, COS-7; type: cell-based; details: 24 h agonist treatment; nominal EC80 concentration from reporter curves
Sequence (P04150 whole entry): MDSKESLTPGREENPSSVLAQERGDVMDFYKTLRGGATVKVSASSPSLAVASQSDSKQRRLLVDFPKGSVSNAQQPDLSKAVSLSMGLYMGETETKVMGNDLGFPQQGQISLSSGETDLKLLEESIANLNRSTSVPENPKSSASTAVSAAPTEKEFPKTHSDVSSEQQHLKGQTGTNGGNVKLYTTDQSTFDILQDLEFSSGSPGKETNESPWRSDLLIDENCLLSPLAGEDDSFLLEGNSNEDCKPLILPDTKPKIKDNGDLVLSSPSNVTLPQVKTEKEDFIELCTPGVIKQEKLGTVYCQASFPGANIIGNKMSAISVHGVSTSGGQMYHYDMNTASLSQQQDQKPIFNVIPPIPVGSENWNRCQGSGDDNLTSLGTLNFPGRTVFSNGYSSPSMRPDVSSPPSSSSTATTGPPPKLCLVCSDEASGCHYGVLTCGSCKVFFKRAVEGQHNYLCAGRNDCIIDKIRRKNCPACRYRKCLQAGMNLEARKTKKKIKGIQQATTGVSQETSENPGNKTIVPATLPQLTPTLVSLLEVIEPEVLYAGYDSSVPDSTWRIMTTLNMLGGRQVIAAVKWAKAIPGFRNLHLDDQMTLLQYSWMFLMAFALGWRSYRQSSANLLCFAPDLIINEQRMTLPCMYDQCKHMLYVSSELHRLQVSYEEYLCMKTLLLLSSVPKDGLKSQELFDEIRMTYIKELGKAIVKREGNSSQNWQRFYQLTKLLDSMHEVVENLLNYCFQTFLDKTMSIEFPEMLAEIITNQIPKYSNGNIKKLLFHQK

Ask: Recorded EC80 for C[C@]12CCC(=O)C=C1CC[C@@H]1[C@@H]2[C@@H](O)C[C@@]2(C)[C@H]1CC[C@]2(O)C(=O)CO [Hydrocortisone] with UniProtKB P04150, please?
Reply: ~ 1 mM

Ask: Proceed to C[C@]12C=CC(=O)C=C1CC[C@@H]1[C@@H]2[C@@H](O)C[C@@]2(C)[C@H]1CC[C@]2(O)C(=O)CO [Prednisolone]
Reply: ~ 100 μM

Ask: Proceed to C[C@@H]1C[C@H]2[C@@H]3CCC4=CC(=O)C=C[C@]4(C)[C@@]3(F)[C@@H](O)C[C@]2(C)[C@@]1(O)C(=O)CO [Dexamethasone]
Reply: ~ 10 μM

Ask: Proceed to CCCC1O[C@@H]2C[C@H]3[C@@H]4CCC5=CC(=O)C=C[C@]5(C)[C@H]4[C@@H](O)C[C@]3(C)[C@]2(C(=O)CO)O1 (some centres unmarked) [Budesonide]
Reply: ~ 10 μM

Ask: Proceed to C[C@H]1C[C@H]2[C@@H]3CCC4=CC(=O)C=C[C@]4(C)[C@@]3(F)[C@@H](O)C[C@]2(C)[C@@]1(O)C(=O)CO [β-methasone]
Reply: ~ 10 μM

====

Target protein (sequence): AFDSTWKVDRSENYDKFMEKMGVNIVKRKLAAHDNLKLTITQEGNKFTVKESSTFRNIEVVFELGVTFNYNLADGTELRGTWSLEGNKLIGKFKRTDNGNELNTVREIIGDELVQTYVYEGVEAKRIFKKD
measurement.kind: Kd (µM)
Respond with the bare value in µM.

Ask: Entry under review: "CCCCc1ccc2n1[B-](F)(F)[N+]1=C(CCCCCCCCC(=O)O)C=CC1=C2" . Reported Kd?
Reply: 4.1

====

Here's what we have: pKi numbers for FABP3 (heart, H-FABP) (Homo sapiens, UniProt P05413).
pKi here is simply -log10 of the concentration when that concentration is written in mol/L.

Ask: Recorded pKi for C[C@]12CCC(=O)C=C1CC[C@@H]1[C@@H]2[C@@H](O)C[C@@]2(C)[C@H]1CC[C@]2(O)C(=O)CO [Hydrocortisone] with FABP3 (heart, H-FABP) (Homo sapiens, UniProt P05413), please?
Reply: 5.11

Ask: Proceed to C[C@]12C=CC(=O)C=C1CC[C@@H]1[C@@H]2C(=O)C[C@@]2(C)[C@H]1CC[C@]2(O)C(=O)CO [Prednisone]
Reply: 5.12

Ask: Proceed to CCCC1O[C@@H]2C[C@H]3[C@@H]4CCC5=CC(=O)C=C[C@]5(C)[C@H]4[C@@H](O)C[C@]3(C)[C@]2(C(=O)CO)O1 (stereo partly shown) [Budesonide]
Reply: 7.24

Ask: Proceed to C[C@H]1C[C@@H]2[C@H]([C@@H](O)C[C@@]3(C)[C@H]2CC[C@]3(O)C(=O)CO)[C@@]2(C)C=CC(=O)C=C12 [Methylprednisolone]
Reply: 3.93

Ask: Proceed to C[C@]12CCC(=O)C=C1CC[C@@H]1[C@@H]2C(=O)C[C@@]2(C)[C@H]1CC[C@]2(O)C(=O)CO [Cortisone]
Reply: 3.97

Ask: Proceed to C[C@]12C=CC(=O)C=C1CC[C@@H]1[C@@H]2[C@@H](O)C[C@@]2(C)[C@H]1CC[C@]2(O)C(=O)CO [Prednisolone]
Reply: 4.15

Ask: Proceed to C[C@@H]1C[C@H]2[C@@H]3CCC4=CC(=O)C=C[C@]4(C)[C@@]3(F)[C@@H](O)C[C@]2(C)[C@@]1(O)C(=O)CO [Dexamethasone]
Reply: 5.25
